So I've got a bunch of compounds here, and I need their pIC50 values.
- experimental_system: full-length beta-Catenin (Uniprot ID P35222) (Homo sapiens, UniProt P35222)
- Construct: 10 nM full-length beta-Catenin (Uniprot ID P35222)
- measurement_description: Fluorescence polarization IC50 (beta-catenin / 5FAM-TCF4 10-53 competition)
- Assay type: binding
- stated_conditions: fluorescence polarization; read-out: beta-Catenin FP IC50
Numbers only, as −log10 of the molar value.

Observe how each entry below is paired with its result.
I would be grateful if you could share the reported pIC50 for CC(=O)N1CCC[C@]12CC=CCCCC1(CCCC=CCCCOC(=O)N3CC[C@@](C(=O)N[C@@H](Cc4ccccc4)C(=O)N[C@@H](Cc4csc5ccccc45)C(=O)N[C@@H](CCCCN)C(N)=O)(C3)NC(=O)[C@H](CC(C)C)NC(=O)[C@H](Cc3ccccc3)NC(=O)[C@H](C)NC(=O)[C@H](CCCN3CCOCC3)NC(=O)[C@H](CCC(N)=O)NC(=O)[C@H](CC(=O)O)NC1=O)NC(=O)[C@H](CC1CCCCC1)NC(=O)[C@H](CC(N)=O)NC2=O (stereo partly drawn) . 6.12

I would be grateful if you could share the reported pIC50 for CC[C@H](C)[C@@H]1NC(=O)[C@H](CC(=O)O)NC(=O)[C@]2(CC=CCCCC3(CCCC=CCCCCCC[C@@](C)(C(=O)N[C@@H](Cc4ccccc4)C(=O)N[C@@H](Cc4csc5ccccc45)C(=O)N[C@@H](CCC(N)=O)C(N)=O)NC(=O)[C@H](CCC(N)=O)NC(=O)[C@H](Cc4ccccc4)NC(=O)[C@H](Cc4c[nH]c5ccccc45)NC(=O)[C@H](C)NC(=O)[C@H](CCC(=O)O)NC(=O)[C@H](CC(=O)O)NC3=O)NC1=O)CCCN2C(C)=O (stereo partly drawn) [I-665] . 6.03

Proceed to the following item.
I would be grateful if you could share the reported pIC50 for CC(=O)N1CCC[C@]12CC=CCCCC1(CCCC=CCCCOC(=O)N3CC[C@@](C(=O)N[C@@H](Cc4ccccc4)C(=O)N[C@@H](Cc4csc5ccccc45)C(=O)N[C@@H](CCCCNC(C)C)C(N)=O)(C3)NC(=O)[C@H](CC(C)C)NC(=O)[C@H](Cc3ccccc3)NC(=O)[C@H](C)NC(=O)[C@H](CCCCNC(C)C)NC(=O)[C@H](CCC(N)=O)NC(=O)[C@H](CC(=O)O)NC1=O)NC(=O)[C@H](CC(C)(C)C)NC(=O)[C@H](CC(N)=O)NC2=O (stereo partly drawn) . 6.03

###

So I've got a bunch of compounds here, and I need their solubility at 15 min values.
- measurement_description: Solubility in PBS
- Assay type: physicochemical
- stated_conditions: Solubility (uM)
A complete answer gives the number and then names the unit.

I would be grateful if you could share the reported solubility at 15 min for CC(=O)N[C@@H](Cc1ccccc1)C(=O)N[C@@H](CC(=O)O)C(=O)N[C@@H](C)C(=O)N[C@]1(C)CCCCCCC=CCOC(=O)N2CC[C@@](C(=O)N[C@@H](Cc3ccccc3)C(=O)N[C@@H](Cc3c[nH]c4ccccc34)C(=O)N[C@@H](CCC(N)=O)C(N)=O)(C2)NC(=O)[C@H](C(C)C)NC(=O)[C@H](CC2CCCC2)NC(=O)[C@H](C)NC(=O)[C@H](C)NC(=O)[C@H](CC(=O)O)NC(=O)[C@H](CC(=O)O)NC1=O (single isomer, unassigned) . 33 µM

I would be grateful if you could share the reported solubility at 15 min for COCCC(=O)N1CCC[C@]12CC=CCCCC1(CCCC=CCCCOC(=O)N3CC[C@@](C(=O)N[C@@H](Cc4ccccc4)C(=O)N[C@@H](Cc4csc5ccccc45)C(=O)N[C@@H](CO)C(N)=O)(C3)NC(=O)[C@H](CO)NC(=O)[C@H](Cc3ccccc3)NC(=O)[C@H](C)NC(=O)[C@H](C)NC(=O)[C@H](CC(=O)O)NC(=O)[C@H](CC(=O)O)NC1=O)NC(=O)[C@H](CC(C)(C)C)NC(=O)[C@H](CC(=O)O)NC2=O (stereo partly drawn) . 48 µM

Proceed to the following item.
I would be grateful if you could share the reported solubility at 15 min for CC(=O)N1CCC[C@]12CC=CCCCC1(CCCC=CCCCOC(=O)N3CC[C@@](C(=O)N[C@@H](Cc4ccccc4Cl)C(=O)N[C@@H](Cc4csc5ccccc45)C(=O)N[C@@H](CCC(N)=O)C(N)=O)(C3)NC(=O)[C@H](CC(C)C)NC(=O)[C@H](Cc3ccccc3)NC(=O)[C@H](C)NC(=O)[C@H](C)NC(=O)[C@H](Cc3cccc(C(=O)O)c3)NC(=O)[C@H](CC(=O)O)NC1=O)NC(=O)[C@H](CC(C)(C)C)NC(=O)[C@H](CC(=O)O)NC2=O (stereo partly drawn) . 13 µM

###

- experimental_system: full-length beta-Catenin (Uniprot ID P35222) (Homo sapiens)
- Construct: 10 nM full-length beta-Catenin (Uniprot ID P35222)
- Sequence (P35222 1-781): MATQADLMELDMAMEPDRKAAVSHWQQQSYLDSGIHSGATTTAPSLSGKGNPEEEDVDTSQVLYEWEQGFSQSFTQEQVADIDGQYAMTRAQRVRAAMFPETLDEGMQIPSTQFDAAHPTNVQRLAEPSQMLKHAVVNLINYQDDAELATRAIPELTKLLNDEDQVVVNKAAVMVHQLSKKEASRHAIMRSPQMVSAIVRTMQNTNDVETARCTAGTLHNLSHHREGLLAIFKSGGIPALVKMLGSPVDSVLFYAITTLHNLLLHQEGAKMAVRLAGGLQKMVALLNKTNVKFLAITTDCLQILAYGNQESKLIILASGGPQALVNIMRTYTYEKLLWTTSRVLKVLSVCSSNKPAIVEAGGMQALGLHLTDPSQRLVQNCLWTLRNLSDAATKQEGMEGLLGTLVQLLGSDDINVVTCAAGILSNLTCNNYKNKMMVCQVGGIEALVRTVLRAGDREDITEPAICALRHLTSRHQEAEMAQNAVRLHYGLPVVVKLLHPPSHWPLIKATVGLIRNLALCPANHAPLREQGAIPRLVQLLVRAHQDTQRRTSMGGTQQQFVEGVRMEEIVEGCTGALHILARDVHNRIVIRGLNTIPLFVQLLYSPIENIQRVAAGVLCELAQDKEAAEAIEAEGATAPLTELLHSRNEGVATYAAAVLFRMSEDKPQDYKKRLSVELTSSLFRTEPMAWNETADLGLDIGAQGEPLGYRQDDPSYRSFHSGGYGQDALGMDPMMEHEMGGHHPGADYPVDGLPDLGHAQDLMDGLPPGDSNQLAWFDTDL
- measurement_description: Fluorescence polarization IC50 (beta-catenin / 5FAM-TCF4 10-53 competition)
- Assay type: binding
- stated_conditions: fluorescence polarization; read-out: beta-Catenin FP IC50
So I've got a bunch of compounds here, and I need their pIC50 values.
Answers are plain numbers, as −log10 of the molar value.

Observe how each entry below is paired with its result.
Which measured pIC50 belongs to CC(=O)N1CCC[C@]12CC=CCCCC1(CCCC=CCCCOC(=O)N3CC[C@@](C(=O)N[C@@H](Cc4ccccc4Cl)C(=O)N[C@@H](Cc4csc5ccccc45)C(=O)N[C@@H](CCC(N)=O)C(N)=O)(C3)NC(=O)[C@H](CO)NC(=O)[C@H](Cc3ccccc3)NC(=O)[C@H](CC(C)C)NC(=O)[C@H](C)NC(=O)[C@H](CC(=O)O)NC(=O)[C@H](CC(=O)O)NC1=O)NC(=O)[C@H](CC1CCCCC1)NC(=O)[C@H](CC(=O)O)NC2=O (stereo partly drawn) [I-1148] , tested on full-length beta-Catenin (Uniprot ID P35222) (Homo sapiens)? 7.30

Which measured pIC50 belongs to CC[C@@H]1NC(=O)[C@H](Cc2ccccc2)NC(=O)[C@H](C)NC(=O)C(C)(C)NC(=O)[C@H](Cc2cccc(C(=O)O)c2)NC(=O)[C@H](CC(=O)O)NC(=O)C2(CCCC=CCCCOC(=O)N3CC[C@@](C(=O)N[C@@H](Cc4ccsc4)C(=O)N[C@@H](Cc4csc5ccccc45)C(=O)N[C@@H](CCC(=O)N4CCC(N5CCCCC5)CC4)C(N)=O)(C3)NC1=O)CCCC=CC[C@]1(CCCN1C(C)=O)C(=O)N[C@@H](CC(=O)O)C(=O)N[C@@H](CC(C)(C)C)C(=O)N2 (stereo partly drawn) [I-2560] , tested on full-length beta-Catenin (Uniprot ID P35222) (Homo sapiens)? 8.05

Proceed to the following item.
Which measured pIC50 belongs to CC(=O)N1CCC[C@]12CC=CCCCC1(CCCC=CCCCOC(=O)N3CC[C@@](C(=O)N[C@@H](Cc4ccccc4C(F)(F)F)C(=O)N[C@@H](Cc4ccc5ccccc5c4)C(=O)N[C@@H](CCC(N)=O)C(N)=O)(C3)NC(=O)[C@H](CC(C)C)NC(=O)[C@H](Cc3ccccc3)NC(=O)[C@H](C)NC(=O)[C@H](C)NC(=O)[C@H](Cc3cccc(C(=O)O)c3)NC(=O)[C@H](CC(=O)O)NC1=O)NC(=O)[C@H](CC(C)(C)C)NC(=O)[C@H](CC(=O)O)NC2=O (stereo partly drawn) [I-2460] , tested on full-length beta-Catenin (Uniprot ID P35222) (Homo sapiens)? 7.09
